# System: PYK2;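 note: KINOMEscan kinase panel screen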
# Construct: gene PTK2B
# conditionSummary: concentration: 1 μM, replicates: in singlicate; n = 1
Mark Y only when %Inh stays strictly below 3%. Values equal to the cut-off are N.

stdin: Dear reviewer, please state whether O=C1NC(=O)C(c2ccc(Cl)cc2)=C1Nc1ccc(O)cc1 [SB-340867] has %Inh strictly beneath 3%.
stdout: N

stdin: Dear reviewer, please state whether Cl.Cl.Cl.N#Cc1ccc(CCNc2nccc(-c3cccc(CN4CCNCC4)c3)n2)cc1 [GSK2137462] has %Inh strictly beneath 3%.
stdout: Y

stdin: Dear reviewer, please state whether O=c1cc(N2CCOCC2)nc2n(Cc3cccc(Cl)c3Cl)c3ccccc3n12 [GSK2299009] has %Inh strictly beneath 3%.
stdout: N

stdin: Dear reviewer, please state whether FC(F)(F)c1ccccc1-c1cc(-c2c[nH]nc2-c2ccccn2)ccn1 [GW679396] has %Inh strictly beneath 3%.
stdout: N

stdin: Dear reviewer, please state whether COc1cccc(C2=C(Nc3cc(Cl)c(O)c(Cl)c3)C(=O)NC2=O)c1 [SB-390767] has %Inh strictly beneath 3%.
stdout: Y

stdin: Dear reviewer, please state whether CC(C)c1cc(-c2ccc3c(N)n[nH]c3c2)nc(N)n1 [GSK2250882] has %Inh strictly beneath 3%.
stdout: N

stdin: Dear reviewer, please state whether COC(=O)C(Cc1ccccc1)NC(=O)NC1CCN(c2ccnc(Nc3ccc(F)cc3)n2)C1 (stereo not drawn) [GSK1379714] has %Inh strictly beneath 3%.
stdout: N

stdin: Dear reviewer, please state whether CS(=O)(=O)Cc1ccc(Nc2nccc(-c3c(-c4cccc(NC(=O)C5CCCCC5)c4)nn4ncccc34)n2)cc1 [GSK350559] has %Inh strictly beneath 3%.
stdout: Y

stdin: Dear reviewer, please state whether Cc1ccccc1Cn1ccn2c(=O)cc(N3CCOCC3)nc12 [GSK2269905] has %Inh strictly beneath 3%.
stdout: Y

stdin: Dear reviewer, please state whether O=C1NC(=O)C(c2ccc(Cl)cc2)=C1Nc1cccc(Cl)c1 [SB-317651] has %Inh strictly beneath 3%.
stdout: Y

stdin: Dear reviewer, please state whether Cc1ccc(NC(=O)Nc2ccccc2F)cc1-c1ccc(C(=O)Nc2ccncc2)cc1 [GSK1398477] has %Inh strictly beneath 3%.
stdout: Y

stdin: Dear reviewer, please state whether COC(=O)c1cccc(NC(=O)NC2CCN(c3ccnc(Nc4ccc(F)cc4)n3)C2)c1 (stereo not drawn) [GSK1379725] has %Inh strictly beneath 3%.
stdout: Y

stdin: Dear reviewer, please state whether CC(C)c1ccc(O)cc1Nc1ccnc2ccc(C(F)(F)F)cc12 [GW482059] has %Inh strictly beneath 3%.
stdout: Y

stdin: Dear reviewer, please state whether Fc1ccc(-c2nn3cccc(F)c3c2-c2ccncc2)cc1 [GW475620] has %Inh strictly beneath 3%.
stdout: Y

stdin: Dear reviewer, please state whether Cc1cnc(N)c(/C=C/c2cncc(C(=O)NCCc3ccc(Cl)cc3Cl)c2)c1.Cl [GSK190937] has %Inh strictly beneath 3%.
stdout: N

stdin: Dear reviewer, please state whether CC[C@@H]1CO[C@H](C(=O)Nc2ccccc2)CN1c1cc(-c2ccc3c(N)n[nH]c3c2)nc(NC)n1 [GSK2376236] has %Inh strictly beneath 3%.
stdout: Y

Taken from paper PMC5540273.
